# ASSAYED SYSTEM: Cathepsin D (Cat D) (Homo sapiens (Human))
# Sequence (P07339 65-412, species assumed): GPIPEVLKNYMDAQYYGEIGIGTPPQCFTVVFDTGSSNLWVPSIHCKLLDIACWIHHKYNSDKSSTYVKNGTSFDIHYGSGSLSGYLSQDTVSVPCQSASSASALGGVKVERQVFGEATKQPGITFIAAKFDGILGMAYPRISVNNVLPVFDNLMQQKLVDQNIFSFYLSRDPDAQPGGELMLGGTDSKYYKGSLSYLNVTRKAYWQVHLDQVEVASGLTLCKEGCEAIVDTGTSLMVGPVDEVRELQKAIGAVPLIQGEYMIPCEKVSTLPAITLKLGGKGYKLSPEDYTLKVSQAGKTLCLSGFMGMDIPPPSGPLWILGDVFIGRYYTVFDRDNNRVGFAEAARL
# PROCEDURE TEXT: In vitro enzymatic Cathepsin D (Cat D) FRET assay
# Type: biochemical
# RUN CONDITIONS: average IC50, cathepsin D enzyme assay; read-out: CatD IC50
Listing of recorded IC50 by entry.

QUERY: Request - read-out IC50 | tested on Cathepsin D (Cat D) (Homo sapiens (Human)) | compound "CC#CCOc1cnc(C(=O)Nc2cc(F)c(F)c([C@]3(CF)C[C@@H](C(F)(F)F)OC(N)=N3)c2)cn1"
RESULT: > 400 µM

QUERY: Next compound up: "C#Cc1ccc(-c2ccc(F)c([C@]3(CF)C[C@@H](C(F)(F)F)OC(N)=N3)c2)cn1"
RESULT: > 400 µM

QUERY: Now the same for "N#Cc1ccc(C(=O)Nc2ccc(F)c([C@]3(CF)C[C@@H](C(F)(F)F)OC(N)=N3)n2)nc1"
RESULT: > 400 µM

QUERY: Please give the result for "NC1=N[C@](CF)(c2cc(-c3nc4ccc(Cl)cc4o3)ccc2F)C[C@@H](C(F)(F)F)O1" too.
RESULT: > 44.4 µM
